target: ERβ (Homo sapiens, UniProt Q92731); assay: Fluorescence polarization competition assay: antagonistic potency and relative binding affinity; details: calculated antagonistic (inhibitory) constant; read-out: Ka ERβ
Sequence (Q92731 whole entry): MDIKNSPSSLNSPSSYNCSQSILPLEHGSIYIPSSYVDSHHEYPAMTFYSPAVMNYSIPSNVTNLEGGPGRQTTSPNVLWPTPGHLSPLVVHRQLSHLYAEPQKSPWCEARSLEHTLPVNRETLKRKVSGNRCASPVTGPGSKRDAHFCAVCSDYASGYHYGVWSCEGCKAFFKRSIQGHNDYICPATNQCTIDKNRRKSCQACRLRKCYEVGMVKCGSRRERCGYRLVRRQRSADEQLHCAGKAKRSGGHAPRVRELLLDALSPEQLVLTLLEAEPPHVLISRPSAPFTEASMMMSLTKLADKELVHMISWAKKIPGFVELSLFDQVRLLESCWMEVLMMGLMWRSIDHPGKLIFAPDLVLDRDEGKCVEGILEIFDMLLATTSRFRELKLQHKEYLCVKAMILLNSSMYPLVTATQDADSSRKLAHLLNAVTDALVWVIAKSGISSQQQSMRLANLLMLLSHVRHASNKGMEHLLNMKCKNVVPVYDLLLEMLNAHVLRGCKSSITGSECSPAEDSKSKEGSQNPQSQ
measured-parameter: pKi
Worth noting: pKi values are minus log10 of concentrations stated in mol/L.

Use the examples below as a reference point.
CC(=O)c1cc(C(=O)O[C@@H]2/C=C/C(=O)O[C@@H](O)CCC/C=C/[C@@H]3C[C@H](O)C[C@H]32)ccc1OCCN1CCCC(O)C1=O (some centres unmarked) [Compound 3DPQ-12] : 7.30
CC(=O)c1cc(C(=O)O[C@@H]2/C=C/C(=O)O[C@@H](O)CCC/C=C/[C@@H]3C[C@H](O)C[C@H]32)ccc1OCCN(C)C [Compound 3DPQ-2] : 7.36
CNCCOc1ccc(C(=O)O[C@@H]2/C=C/C(=O)O[C@@H](O)CCC/C=C/[C@@H]3C[C@H](O)C[C@H]32)cc1C(C)=O [Compound 3DPQ-1] : 7.38
CC(=O)c1cc(C(=O)OC2/C=C/C(=O)O[C@@H](O)CCC/C=C/[C@@H]3C[C@H](O)C[C@@H]23)ccc1OCCN1CCC=C(C(=O)O)C1 (some centres unmarked) [Compound 3DPQ-3] : 7.38
CC(=O)c1cc(C(=O)O[C@@H]2/C=C/C(=O)O[C@@H](O)CCC/C=C/[C@@H]3C[C@H](O)C[C@H]32)ccc1OCCS(=O)(=O)O [Compound 3DPQ-4] : 7.33
CC(=O)c1cc(C(=O)O[C@@H]2/C=C/C(=O)O[C@@H](O)CCC/C=C/[C@@H]3C[C@H](O)C[C@H]32)ccc1OCCN1CC(C(=O)O)=CCC1=O [Compound 3DPQ-9] : 7.33

Lookup: Given the compound CC(=O)c1cc(C(=O)O[C@@H]2/C=C/C(=O)O[C@@H](O)CCC/C=C/[C@@H]3C[C@H](O)C[C@H]32)ccc1OCCN1CCCC2CCCNC21 (some centres unmarked) [Compound 3DPQ-8] , write its reported pKi.
Found: 7.39

Lookup: Given CC(=O)c1cc(C(=O)OC2C=CC(=O)OC(O)CCCC=CC3CC(O)CC32)ccc1OCCN1C(=O)CCC1=O (centres unmarked) [Compound 3DPQ-5] , respond with its pKi.
Found: 7.38

---

experiment: Pharmacokinetics study, oral bioavailability; details: rat, oral 50 mg/kg
Form field: BIO (one value per entry).

Lookup: Specify measured BIO for CNCCOc1ccc(C(=O)O[C@@H]2/C=C/C(=O)O[C@@H](O)CCC/C=C/[C@@H]3C[C@H](O)C[C@H]32)cc1C(C)=O [Compound 3DPQ-1] .
Found: 94

Lookup: State its BIO for this compound: CC(=O)c1cc(C(=O)O[C@@H]2/C=C/C(=O)O[C@@H](O)CCC/C=C/[C@@H]3C[C@H](O)C[C@H]32)ccc1OCCN1CCCC(O)C1=O (stereo partly drawn) [Compound 3DPQ-12]
Found: 96

Lookup: State, in one line, measured BIO of CC(=O)c1cc(C(=O)O[C@@H]2/C=C/C(=O)O[C@@H](O)CCC/C=C/[C@@H]3C[C@H](O)C[C@H]32)ccc1OCCN1CC(C(=O)O)=CCC1=O [Compound 3DPQ-9]
Found: 97

---

experiment: Serum biochemical markers after treatment of MNU-induced rats; assay type: in vivo, Wistar rats; details: serum, dose 5 mg/kg
Let's look at some compounds and their measured γ-GT (U/L).
Kindly provide the numeric value in U/L only, without the unit symbol.

CC(=O)c1cc(C(=O)OC2/C=C/C(=O)O[C@@H](O)CCC/C=C/[C@@H]3C[C@H](O)C[C@@H]23)ccc1OCCN1CCC=C(C(=O)O)C1 (stereo partly drawn) : 10.36
CC(=O)c1cc(C(=O)O[C@@H]2/C=C/C(=O)O[C@@H](O)CCC/C=C/[C@@H]3C[C@H](O)C[C@H]32)ccc1OCCN1CCCC(O)C1=O (stereo partly drawn) : 13.53

Lookup: Consider the compound `CNCCOc1ccc(C(=O)O[C@@H]2/C=C/C(=O)O[C@@H](O)CCC/C=C/[C@@H]3C[C@H](O)C[C@H]32)cc1C(C)=O` . State its measured γ-GT (U/L).
Found: 13.54

---

test system: MDA-MB-231 cell lines; assay: MTT antiproliferative assay; type: cell-based, human; details: Homo sapiens, MDA-MB-231; growth inhibition, 48 h; read-out: MDA-MB-231 (IC50 nM)
measured-parameter: IC50 (nM)
// return numeric value only (unit: nM, not printed)

CC(=O)c1cc(C(=O)O[C@@H]2/C=C/C(=O)O[C@@H](O)CCC/C=C/[C@@H]3C[C@H](O)C[C@H]32)ccc1OCCN1CC(C(=O)O)=CCC1=O : 81.6
CC(=O)c1cc(C(=O)O[C@@H]2/C=C/C(=O)O[C@@H](O)CCC/C=C/[C@@H]3C[C@H](O)C[C@H]32)ccc1OCCN1CCCC2CCCNC21 (some centres unmarked) : 42.6
CC(=O)c1cc(C(=O)OC2C=CC(=O)OC(O)CCCC=CC3CC(O)CC32)ccc1OCCN1C(=O)CCC1=O (centres unmarked) : 52.6
CNCCOc1ccc(C(=O)O[C@@H]2/C=C/C(=O)O[C@@H](O)CCC/C=C/[C@@H]3C[C@H](O)C[C@H]32)cc1C(C)=O : 72.4
CC(=O)c1cc(C(=O)O[C@@H]2/C=C/C(=O)O[C@@H](O)CCC/C=C/[C@@H]3C[C@H](O)C[C@H]32)ccc1OCCN1CCCC(O)C1=O (some centres unmarked) : 82.8

Lookup: Given `CC(=O)c1cc(C(=O)O[C@@H]2/C=C/C(=O)O[C@@H](O)CCC/C=C/[C@@H]3C[C@H](O)C[C@H]32)ccc1OCCN1CCCCC1` , respond with its IC50.
Found: 42

Lookup: Check the records and state IC50 for `CC(=O)c1cc(C(=O)O[C@@H]2/C=C/C(=O)O[C@@H](O)CCC/C=C/[C@@H]3C[C@H](O)C[C@H]32)ccc1OCCN1CCCC1`
Found: 67.1

Lookup: Check the records and state IC50 for `CC(=O)c1cc(C(=O)O[C@@H]2/C=C/C(=O)O[C@@H](O)CCC/C=C/[C@@H]3C[C@H](O)C[C@H]32)ccc1OCCN(C)C`
Found: 72.4

Lookup: Specify IC50 for `CC(=O)c1cc(C(=O)O[C@@H]2/C=C/C(=O)O[C@@H](O)CCC/C=C/[C@@H]3C[C@H](O)C[C@H]32)ccc1OCCN1C=Cc2ccccc2C1` and stop.
Found: 52

Lookup: Look up and report measured IC50 for this entry: `CC(=O)c1cc(C(=O)O[C@@H]2/C=C/C(=O)O[C@@H](O)CCC/C=C/[C@@H]3C[C@H](O)C[C@H]32)ccc1OCCS(=O)(=O)O`
Found: 67.3

Lookup: Return IC50 for the following compound: `CC(=O)c1cc(C(=O)O[C@@H]2/C=C/C(=O)O[C@@H](O)CCC/C=C/[C@@H]3C[C@H](O)C[C@H]32)ccc1OCCN1Cc2cccnc2C1`
Found: 52.3

---

assay: Serum biochemical markers after treatment of MNU-induced rats; type: in vivo, Wistar rats; details: serum, dose 5 mg/kg
The label depends only on ALT (A/L): true if it is at least 50 A/L, false if it is smaller.

CC(=O)c1cc(C(=O)O[C@@H]2/C=C/C(=O)O[C@@H](O)CCC/C=C/[C@@H]3C[C@H](O)C[C@H]32)ccc1OCCN1CC(C(=O)O)=CCC1=O [Compound 3DPQ-9] : false
CC(=O)c1cc(C(=O)O[C@@H]2/C=C/C(=O)O[C@@H](O)CCC/C=C/[C@@H]3C[C@H](O)C[C@H]32)ccc1OCCN(C)C [Compound 3DPQ-2] : false

Lookup: Does the compound CC(=O)c1cc(C(=O)O[C@@H]2/C=C/C(=O)O[C@@H](O)CCC/C=C/[C@@H]3C[C@H](O)C[C@H]32)ccc1OCCS(=O)(=O)O [Compound 3DPQ-4] have recorded ALT (A/L) that is 50 A/L or more?
Found: true

Lookup: Would you say CNCCOc1ccc(C(=O)O[C@@H]2/C=C/C(=O)O[C@@H](O)CCC/C=C/[C@@H]3C[C@H](O)C[C@H]32)cc1C(C)=O [Compound 3DPQ-1] shows ALT (A/L) at minimum 50 A/L?
Found: true

Lookup: Check if ALT (A/L) >= 50 A/L (inclusive). Item: CC/C(=C(\c1ccc(O)cc1)c1ccc(OCCN(C)C)cc1)c1ccccc1 [Compound 4-OHT., 4-hydroxytamoxifen, reference compound]
Found: true

---

Examples of compounds with documented fraction unbound at 5 mg/kg bwt follow.
assay: Plasma protein binding determination; format: in vitro ADME, rat; conditions: rat plasma, 37 °C, 5 mg/kg; read-out: Rat PPB (%free)
Give only the figure.

# example entries with known answers
CC(=O)c1cc(C(=O)O[C@@H]2/C=C/C(=O)O[C@@H](O)CCC/C=C/[C@@H]3C[C@H](O)C[C@H]32)ccc1OCCS(=O)(=O)O [Compound 3DPQ-4] : 0.0123
CC(=O)c1cc(C(=O)OC2/C=C/C(=O)O[C@@H](O)CCC/C=C/[C@@H]3C[C@H](O)C[C@@H]23)ccc1OCCN1CCC=C(C(=O)O)C1 (stereo partly drawn) [Compound 3DPQ-3] : 0.0134

Lookup: Quote fraction unbound at 5 mg/kg bwt reported for CNCCOc1ccc(C(=O)O[C@@H]2/C=C/C(=O)O[C@@H](O)CCC/C=C/[C@@H]3C[C@H](O)C[C@H]32)cc1C(C)=O [Compound 3DPQ-1] please.
Found: 0.0133
